- experimental.parameters: in n-propanol, 308.15 K
property.measured: solubility (mole fraction)
API doc: respond with a numeric literal and nothing else, no unit.

Query string: Return reported solubility (mole fraction); argument: CC1=C(C(=O)O)N2C(=O)[C@@H](NC(=O)[C@H](N)C3=CCC=CC3)[C@H]2SC1
Result string: 0.000469

----------
- experimental.parameters: in ethanol, 285.15 K
property.measured: solubility (mole fraction)
// print number alone

Query string: GET /values?readout=solubility (mole fraction)&item= CC1=C(C(=O)O)N2C(=O)[C@@H](NC(=O)[C@H](N)C3=CCC=CC3)[C@H]2SC1
Result string: 0.000195

# credit: BigSolDB 2.1
